- experiment_summary: Binding affinity to recombinant human CypD K175I mutant (44 to 207 residues) expressed in Escherichia coli cells assessed as dissociation constant by SPR analysis
Please respond with reported pKd for every item in the list.
To interpret pKd, take it as minus log10 of a concentration measured in moles per litre.

INPUT: Requested field: pKd. Item: CCN1Cc2cc(NC(=O)NCC(=O)N3CCC[C@@H]3c3ccccc3SC)ccc2NCCC1=O
OUTPUT: 3.59

INPUT: Requested field: pKd. Item: O[C@@H]1CO[C@@H]2C[C@H]1Nc1ccc(F)cc12
OUTPUT: 2.15

INPUT: Requested field: pKd. Item: CCN1Cc2cc3c(cc2NCCC1=O)OCO3
OUTPUT: 2.12
